Hello, the source for this data is patent US20180230213A1, in case you need it.

Biological target: T1, monomeric recombinant human Notch3 extracellular domain (containing EGF like domains 1-11) fusion protein (human, UniProt Q9UM47 40-467)
T1 construct: domain: EGF like domains 1-11; also called monomeric rhNotch3
T1 sequence (looked up): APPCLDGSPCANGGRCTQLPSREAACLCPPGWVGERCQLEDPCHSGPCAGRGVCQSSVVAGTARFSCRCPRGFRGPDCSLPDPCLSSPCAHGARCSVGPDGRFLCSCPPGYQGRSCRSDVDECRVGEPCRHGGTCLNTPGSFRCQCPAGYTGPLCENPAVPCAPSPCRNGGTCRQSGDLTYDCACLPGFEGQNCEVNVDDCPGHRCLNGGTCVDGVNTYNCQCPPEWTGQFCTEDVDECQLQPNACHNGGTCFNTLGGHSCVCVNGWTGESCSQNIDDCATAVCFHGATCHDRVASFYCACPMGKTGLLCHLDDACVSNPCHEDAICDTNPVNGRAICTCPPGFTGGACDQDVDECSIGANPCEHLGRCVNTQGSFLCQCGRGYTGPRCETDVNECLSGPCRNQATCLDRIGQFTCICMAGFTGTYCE
Test: SPR BIAcore T100, monomeric rhNotch3 analyte, 37 C, average of Table 16 and additional measurements
Protocol: Goat anti-human IgGs (Fc fragment specific, Jackson ImmunoResearch, West Grove, Pa.) were immobilized on carboxymethylated dextran CM4 sensor chips by amine coupling, according to a standard protocol. Analyses were performed at 25 and 37° C. using PBS containing 0.05% surfactant P20 as running buffer. The antibodies were captured in individual flow cells at a flow rate of 10 μL/minute. […] The dissociation phase was monitored for up to 900 seconds. […]
# kon per record follows
Enter your answer as a number in M⁻¹ s⁻¹; do not include the unit.

| Binder | Unit Annotation | Quantitative Readout |
| --- | --- | --- |
| Hu4F11-79 (antibody, human IgG1, kappa, V domains shown, Humanized, human IgG1 kappa; Hv3-23 A28T T62S heavy + Kv2D-29 N28Q kappa) VH: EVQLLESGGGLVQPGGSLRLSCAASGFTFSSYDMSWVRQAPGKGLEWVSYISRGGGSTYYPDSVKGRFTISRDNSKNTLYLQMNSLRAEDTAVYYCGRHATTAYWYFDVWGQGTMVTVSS VL: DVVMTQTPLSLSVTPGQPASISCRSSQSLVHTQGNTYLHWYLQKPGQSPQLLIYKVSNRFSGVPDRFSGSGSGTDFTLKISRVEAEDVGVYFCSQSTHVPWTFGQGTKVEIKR | M⁻¹ s⁻¹ | 900000 |
| Hu4F11-75 (antibody, human IgG1, kappa, V domains shown, Humanized, human IgG1 kappa; Hv3-23 A28T T62S heavy + Kv2D-29 N28Y kappa) VH: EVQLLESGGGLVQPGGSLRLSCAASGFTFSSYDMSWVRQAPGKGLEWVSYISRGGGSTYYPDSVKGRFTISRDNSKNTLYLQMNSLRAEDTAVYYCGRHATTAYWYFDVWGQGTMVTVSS VL: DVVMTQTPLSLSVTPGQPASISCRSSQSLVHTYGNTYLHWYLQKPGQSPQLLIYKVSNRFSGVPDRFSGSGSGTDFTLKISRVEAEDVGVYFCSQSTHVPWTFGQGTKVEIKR | M⁻¹ s⁻¹ | 1.7e+06 |

Moving on to another binder below.
Input line: Data request, read-out kon, for Hu4F11-78 (antibody, human IgG1, kappa, V domains shown, Humanized, human IgG1 kappa; Hv3-23 A28T S31H T62S heavy + Kv2D-29 N28Q kappa) VH: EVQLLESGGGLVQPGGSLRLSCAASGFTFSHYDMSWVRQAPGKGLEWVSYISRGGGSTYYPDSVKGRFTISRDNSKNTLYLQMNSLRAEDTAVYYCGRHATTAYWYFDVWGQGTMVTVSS VL: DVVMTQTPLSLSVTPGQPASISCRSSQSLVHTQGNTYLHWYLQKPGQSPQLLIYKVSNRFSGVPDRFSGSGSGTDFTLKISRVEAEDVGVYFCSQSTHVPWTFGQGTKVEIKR
Output line: 820000
